Sourced from paper PMC6017844

molecular target: human recombinant MMP-9 (Homo sapiens, UniProt P14780); construct: using 10 nM of proteolytic enzyme (catalytic domains of MMP-9 (Biomol, Inc.)); purchased Biomol, Inc; assay: MMP-9 fluorimetric assay; format: biochemical; conditions: read-out: IC50 (MMP-9)
Sequence (P14780 107-444 limits assumed): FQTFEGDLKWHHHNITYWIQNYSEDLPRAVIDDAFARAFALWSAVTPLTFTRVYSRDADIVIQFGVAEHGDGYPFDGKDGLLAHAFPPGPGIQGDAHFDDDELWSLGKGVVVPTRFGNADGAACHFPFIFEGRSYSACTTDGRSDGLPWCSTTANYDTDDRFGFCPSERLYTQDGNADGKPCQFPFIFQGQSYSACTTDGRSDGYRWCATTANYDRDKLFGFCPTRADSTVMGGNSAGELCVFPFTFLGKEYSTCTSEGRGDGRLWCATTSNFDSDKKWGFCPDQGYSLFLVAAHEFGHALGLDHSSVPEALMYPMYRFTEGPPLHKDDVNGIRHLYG
measurement_label: IC50 (nM)
Number in nM, nothing else.

Asked: Fill in the blank: the reported IC50 of CC(C(=O)NN1C(=O)CSC1c1ccc(C(=O)O)cc1)c1nsc2ccccc12 (stereo not shown) is ____.
Given back: 40

---

// reported melting point per item

In [3]: df
Out[3]:
                                   compound  measurement_label         result
0  CC(C(=O)NN1C(=O)CSC1c1ccc([N+](=O)[O-])cc1)c1nsc2ccccc12 (stereo not shown) (hydrate or solvate)      melting point  208 to 209 °C
1  CC(C(=O)NN1C(=O)CSC1c1ccc(F)cc1)c1nsc2ccccc12 (stereo not shown) (hydrate or solvate)      melting point  185 to 186 °C
2  CC(C(=O)NN1C(=O)CSC1c1ccc(Cl)cc1)c1nsc2ccccc12 (stereo not shown) (hydrate or solvate)      melting point  187 to 188 °C

Asked: Fill in the blank: the reported melting point of COc1ccc(C2SCC(=O)N2NC(=O)C(C)c2nsc3ccccc23)cc1 (stereo not shown) (hydrate or solvate) is ____.
Given back: 170 °C

---

// reported melting point per item

Examples with their reported melting point follow.
>>> print(df.to_string())
                                   compound         result
0  CC(C(=O)NN1C(=O)CSC1c1ccc(C(=O)O)cc1)c1nsc2ccccc12 (stereo not shown)  137 to 140 °C
1  CC(C(=O)NN1C(=O)CSC1c1ccc(O)cc1)c1nsc2ccccc12 (stereo not shown)  257 to 259 °C
2  CC(C(=O)NN1C(=O)CSC1c1ccc(C(F)(F)F)cc1)c1nsc2ccccc12 (stereo not shown) (hydrate or solvate)  145 to 147 °C

In the following, a different compound is considered.
Asked: Fill in the blank: the reported melting point of CC(C(=O)NN1C(=O)CSC1c1ccccc1)c1nsc2ccccc12 (stereo not shown) (hydrate or solvate) is ____.
Given back: 239 to 240 °C
